For each record, write down the corresponding inhibition at 100 µM.
Molecular target: MAO‐B (Homo sapiens, UniProt P27338)
Sequence (P27338 2-520): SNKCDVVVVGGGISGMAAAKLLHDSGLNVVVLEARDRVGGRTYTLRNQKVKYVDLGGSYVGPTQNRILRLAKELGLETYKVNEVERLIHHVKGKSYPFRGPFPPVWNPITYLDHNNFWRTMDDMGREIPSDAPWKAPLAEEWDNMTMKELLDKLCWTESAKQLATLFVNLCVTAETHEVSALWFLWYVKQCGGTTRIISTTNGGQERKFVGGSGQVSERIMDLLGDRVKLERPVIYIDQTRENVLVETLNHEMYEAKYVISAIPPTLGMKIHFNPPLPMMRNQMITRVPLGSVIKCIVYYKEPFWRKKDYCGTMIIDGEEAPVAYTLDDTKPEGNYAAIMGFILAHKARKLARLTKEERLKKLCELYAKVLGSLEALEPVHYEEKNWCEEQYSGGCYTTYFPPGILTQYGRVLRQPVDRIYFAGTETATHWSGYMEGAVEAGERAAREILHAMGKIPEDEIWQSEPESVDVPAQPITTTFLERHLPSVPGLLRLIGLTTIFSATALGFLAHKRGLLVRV
Test: MAO-B inhibition assay (Amplex red fluorescence, tyramine substrate)
Format: biochemical
Conditions: percent inhibition observed at 100 μM
Protocol: The range of compounds used in the study started at 1 mM for the initial screening to determine the percentage of inhibition. […] For 10 minutes, the reaction mixture was incubated at 37 °C. Tyramine, a substrate with a final concentration of 0.30 mM, was added to each well after 15 minutes, followed by 10 μL of Amplex red, a fluorogenic substrate. The FLUOstar Omega fluorescence plate reader (BMG Labtech GmbH, Ortenberg, Germany) was used to detect the change in fluorescence.

Reported inhibition at 100 µM of CCOC(=O)C1=C(Nc2ccc(Br)cc2)CC(c2ccc([N+](=O)[O-])cc2)N(c2ccc(Br)cc2)C1c1ccc([N+](=O)[O-])cc1 (stereo not shown) [4 m] : 46%

Reported inhibition at 100 µM of CCOC(=O)C1=C(Nc2ccc(C)cc2)CC(c2ccc(Cl)cc2)N(c2ccc(C)cc2)C1c1ccc(Cl)cc1 (stereo not shown) [4 j] : < 50%

Reported inhibition at 100 µM of CCOC(=O)C1=C(Nc2ccc(OC)cc2)CC(c2ccc(Cl)cc2)N(c2ccc(OC)cc2)C1c1ccc(Cl)cc1 (stereo not shown) [4 i] : < 50%

Reported inhibition at 100 µM of CCOC(=O)C1=C(Nc2ccc(Cl)cc2)CC(c2ccc([N+](=O)[O-])cc2)N(c2ccc(Cl)cc2)C1c1ccc([N+](=O)[O-])cc1 (stereo not shown) [4 l] : 23%
